Experiment: VP16 transactivation reporter inhibitors, counter-screen for LRH-1 inverse agonist project, cell-based, luminescence, high throughput (AID 651615)
Conditions: Gal4-VP16 luciferase reporter cells, at 3.6 µM
Active and inactive are the calls of the source. Cut-off read from the data, not from the text of the source: active = inhibition above about 33%; inactive = the rest.
Log the outcome using a class from Y (active), N (inactive)

INSERT INTO measurements (molecule, cat) VALUES
  ('COc1cccc(/C=N/Nc2ncnc3c2ncn3Cc2ccccc2)c1O', 'Y'),
  ('CO/N=C/C(=N\Nc1cc(OC)cc(OC)c1)C(=O)c1ccccc1', 'N'),
  ('CC(=O)N1CCN(c2ccc(Oc3ccc([N+](=O)[O-])c(C(F)(F)F)c3)cc2)CC1', 'Y');

For the next question, use this molecule.
Exercise: So what was the verdict on O=C(CSc1ncccc1-c1nc2ccccc2[nH]1)Nc1ccc2c(c1)OCCO2 in this test?
Solution: N

====

Target: Photoreceptor-specific nuclear receptor (Homo sapiens)
Assay: NR2E3 agonist confirmation in cells, cell-based, luminescence, CHO-S two-hybrid (AID 624378);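 note: 0% = DMSO in NR2E3 cells and 100% = DMSO in cells lacking NR2E3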
Conditions: CHO-S mammalian two-hybrid NR2E3-NCOR, luciferase luminescence; at 3.98 µM
This is one part of the list. Activity calls are given as the source filed them.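 How the source made its calls: active means average inhibition above a cutoff equal to the mean inhibition of all tested compounds plus one SD (cut at about 70% in these data); inactive means the rest.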
Log the outcome using a class from active, inactive

Please review the following examples before continuing.
INSERT INTO assay_data (compound, cat) VALUES
  ('O=C(Nc1ccccc1Cl)/C(Cl)=C(\Cl)S(=O)c1ccccc1 (stereo not drawn)', 'active'),
  ('CCCC1CCC(=NNC(=S)NCCc2ccccc2)CC1 (stereo not drawn)', 'inactive');

Exercise: So what was the verdict on Cc1cccc(NS(=O)(=O)c2ccc(-c3cnc(C4CC4)o3)cc2)c1 in this test?
Solution: inactive

Exercise: So what was the verdict on CN(O)C(=S)c1ccccc1 in this test?
Solution: inactive

Exercise: So what was the verdict on COc1cc(CC(=O)Nc2nc(-c3ccc(F)c(F)c3)cs2)cc(OC)c1OC in this test?
Solution: active

Exercise: So what was the verdict on CN(c1ccc2nc3ccccc3c(=O)n2n1)C1CCCCC1 in this test?
Solution: inactive

Exercise: So what was the verdict on CSc1ncccc1C(=O)Nc1nc2ccc(F)cc2s1 in this test?
Solution: inactive

Exercise: So what was the verdict on CC1CCCCN1S(=O)(=O)c1ccc(C(=O)Nc2nnc(-c3cccs3)o2)cc1 (stereo not drawn) in this test?
Solution: inactive

====

Target: Steroidogenic factor 1 (Homo sapiens) (UniProt Q13285)
Sequence (Q13285 whole entry, looked up): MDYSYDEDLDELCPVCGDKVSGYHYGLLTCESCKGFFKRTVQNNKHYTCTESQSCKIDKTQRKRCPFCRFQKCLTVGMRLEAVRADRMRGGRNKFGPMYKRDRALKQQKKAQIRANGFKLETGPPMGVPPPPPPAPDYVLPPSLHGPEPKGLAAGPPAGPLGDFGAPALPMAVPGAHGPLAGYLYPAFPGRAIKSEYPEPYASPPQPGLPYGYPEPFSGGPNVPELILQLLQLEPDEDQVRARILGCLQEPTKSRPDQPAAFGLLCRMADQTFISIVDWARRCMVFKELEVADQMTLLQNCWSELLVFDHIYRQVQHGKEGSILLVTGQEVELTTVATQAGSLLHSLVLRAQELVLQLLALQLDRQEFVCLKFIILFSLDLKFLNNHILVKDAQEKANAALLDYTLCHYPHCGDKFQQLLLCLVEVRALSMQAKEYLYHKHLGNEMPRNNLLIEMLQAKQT
Assay: SF1 (NR5A1) inverse agonists, counter-screen for LRH-1 inverse agonist project, cell-based, luminescence, high throughput (AID 651614);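 note: cells cotransfected with StAR promoter reporter and SF1 expression vector; 0% = vehicle on cells with receptor and 100% = vehicle on cells lacking receptor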
Settings: cell-based SF1 luciferase reporter, at 3.6 µM, stronger effect = higher value
Result type: inhibition (%)
Quick note: give the figure in %, leave out the unit.

INSERT INTO results (compound, meas_value) VALUES
  ('O=C(Cn1nnc2ccccc2c1=O)Nc1ccc2c(c1)CCC2', 25.6),
  ('Cc1cc(C(=O)COC(=O)c2ccccc2Br)c(C)n1CC1CCCO1 (centres undefined)', 51),
  ('C=CCNc1nc2c(c(=O)n(C)c(=O)n2C)n1CCCCCC', 54.9),
  ('Cc1nc2ccc(NC(=O)c3cccs3)cc2c(=O)n1Cc1ccc(Cl)cc1', 55),
  ('COC(=O)c1ccc(COC(=O)c2[nH]c(C)c(C(C)=O)c2C)o1', 38.7),
  ('O=C(Nc1ccc2c(c1)CCCN2C(=O)c1ccco1)c1cc([N+](=O)[O-])ccc1Cl', 59.1),
  ('CC(=O)Nc1sc2c(c1-c1nc3ccccc3s1)CN(C(C)C)CC2', 61.1),
  ('COc1ccc(NS(=O)(=O)c2ccc(-c3coc(C)n3)cc2)cc1OC', 64.7),
  ('CN(C)C(=O)Cn1c(SCC(=O)Nc2ccc3c(c2)OCO3)nc2ccccc21', 28.2),
  ('COc1cccc(C(C)(O)c2nc(-c3ccc(S(C)(=O)=O)cc3)cs2)c1 (centres undefined)', 62.1);

Turning now to a further compound:
Exercise: Request - read-out inhibition | tested on Steroidogenic factor 1 (Homo sapiens) (UniProt Q13285) | compound O=C(CSc1nnnn1C1CC2CCC1C2)Nc1ccnc2ccccc12 (centres undefined)
Solution: 56.1
